# TESTED_SYSTEM: UniProt:P24530
# Sequence (P24530 whole entry): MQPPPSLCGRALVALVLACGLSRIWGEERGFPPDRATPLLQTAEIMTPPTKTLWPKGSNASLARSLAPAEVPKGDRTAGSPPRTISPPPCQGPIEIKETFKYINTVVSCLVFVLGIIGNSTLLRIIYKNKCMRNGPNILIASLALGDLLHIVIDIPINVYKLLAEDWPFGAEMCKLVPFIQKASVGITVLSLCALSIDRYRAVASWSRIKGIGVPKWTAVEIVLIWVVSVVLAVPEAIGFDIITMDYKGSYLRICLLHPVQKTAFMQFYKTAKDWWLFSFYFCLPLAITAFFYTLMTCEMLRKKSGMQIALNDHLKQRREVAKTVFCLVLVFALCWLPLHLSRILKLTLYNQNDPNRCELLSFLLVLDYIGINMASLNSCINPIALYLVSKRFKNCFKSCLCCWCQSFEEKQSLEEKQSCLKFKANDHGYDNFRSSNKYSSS
Compiled record: IC50 values for UniProt:P24530 across several sources.

Use these answered entries as a reference point.
MOLECULE | TESTED_SYSTEM | EXPERIMENTAL_RESULT
Cc1noc(NS(=O)(=O)c2ccsc2C(=O)Oc2ccccc2)c1Br | UniProt:P24530 | > 100000 nM
Cc1noc(NS(=O)(=O)c2ccsc2C(=O)Nc2ccccc2)c1C | UniProt:P24530 | > 100000 nM
COc1ccc([C@@H]2c3nc(NC(C)C)ccc3[C@H](c3ccc4c(c3)OCO4)[C@H]2C(=O)O)c(CC(C)C(=O)N(C)C)c1 (single isomer, unassigned) | UniProt:P24530 | 9.5 nM

q: Any idea what IC50 came out for Cc1cc2c(cc1NC(=O)c1sccc1S(=O)(=O)Nc1onc(C)c1Cl)OCO2 on UniProt:P24530?
a: 35500 nM

q: Then this molecule: COc1ccccc1Oc1c(NS(=O)(=O)c2ccc(C(C)C)cn2)nc(N2CCSCC2)nc1OCCOC(=O)Nc1ccccn1
a: 14 nM

q: # iterate: COc1ccc([C@H]2[C@H](C(=O)O)[C@@H](c3ccc4c(c3)OCO4)CN2CC(=O)NC(c2ccccc2C)c2ccccc2C)cc1
a: 1.1 nM

q: COC(=O)c1sccc1S(=O)(=O)Nc1onc(C)c1Br ?
a: > 100000 nM

q: Subsequent entry: COc1ccccc1Oc1c(NS(=O)(=O)c2ccc(C(C)(C)C)cc2)nc(C)nc1OCCOC(=O)Nc1cccnc1
a: 700 nM

q: Another: CCc1cc(CC)c(NC(=O)CN2C[C@H](c3ccc4c(c3)OCO4)[C@@H](C(=O)O)[C@@H]2c2ccc(OC)cc2)c(CC)c1
a: 1.5 nM

q: Same read-out for CCc1cc2c(cc1Cn1c(C(=O)O)c(Cc3cccc(C(=O)O)c3)c(=O)c3cc(OCCCO)ccc31)OCO2 ?
a: 4390 nM

q: Do the same for COc1ccc([C@H]2[C@H](C(=O)O)[C@@H](c3ccc4c(c3)OCO4)CN2CC(=O)Nc2cc(C)cc(C)c2)cc1 please
a: 2700 nM

q: Next entry: CCc1ccccc1C(NC(=O)CN1C[C@H](c2ccc3c(c2)OCO3)[C@@H](C(=O)O)[C@@H]1c1ccc(OC)cc1)c1ccccc1CC
a: 6.6 nM

q: Cc1noc(NS(=O)(=O)c2ccsc2C(Cc2ccc3c(c2)OCO3)N(C)C)c1Cl (stereo not given) , same question.
a: > 100000 nM

q: Now the same for CCCCOc1ccc2c(c1)c(=O)c(Cc1cccc(C(=O)O)c1)c(C(=O)O)n2Cc1cc2c(cc1CC)OCO2
a: 548 nM

q: Also need COc1cc(NC(=O)c2sccc2S(=O)(=O)Nc2onc(C)c2Cl)c(C(N)=O)cc1OC , thanks.
a: 61000 nM
